Read-out: Glutamate-cysteine ligase regulatory (GCLM), GCLM (gene 2730)
Assay: LTEA_HepaRG_GCLM: Life Technologies and Expression Analysis (LTEA) Assay for Glutamate-cysteine ligase regulatory (GCLM) using HepaRG (AID 2283500)
Conditions: mRNA level, 48 h; actives raise or lower the signal
Calls of active or inactive are those of the source. How the source made its calls: active means hit-call score of the fitted dose curve at least 0.9, where 1 is the maximum; inactive means score below 0.9.
Outcomes: 1.0 (active), 0.0 (inactive)

- Cc1ccccc1[N+](=O)[O-]: 0.0
- CCOCCOC(C)=O: 0.0
- Oc1ccc(Cl)cc1Cl: 0.0
- CC#Cc1cc(C)nc(Nc2ccccc2)n1: 1.0
- c1ccc(-c2ccccc2)cc1: 0.0
- NS(=O)(=O)C(F)(F)C(F)(F)C(F)(F)C(F)(F)C(F)(F)C(F)(F)C(F)(F)C(F)(F)F: 1.0
- CCNc1nc(NC(C)C)nc(SC)n1: 0.0
- Cc1cc2c3c(c1)C(c1ccccc1)=N[C@@H](NC(=O)c1ccncc1)C(=O)N3CC2: 0.0
- O=S(=O)(O)C(F)(F)C(F)(F)C(F)(F)C(F)(F)C(F)(F)C(F)(F)F: 0.0
- COS(=O)(=O)OC: 0.0
- C1CC2OC2CC1C1CO1 (configuration not stated): 0.0
- CCSC(=O)N(CC)C1CCCCC1: 0.0
- Clc1ccc(Cl)cc1: 0.0
- N#Cc1ccc(N(CC(N)=O)CC(F)(F)F)cc1C(F)(F)F: 0.0
- CC(c1ccc(O)cc1)(c1ccc(O)cc1)c1ccc(O)cc1: 0.0
- O=C(O)C(F)(F)C(F)(F)C(F)(F)C(F)(F)C(F)(F)C(F)(F)C(F)(F)C(F)(F)C(F)(F)F: 0.0
- CCOP(=S)(OCC)SCSC(C)(C)C: 0.0
- ClC1=C(Cl)[C@]2(Cl)[C@@H]3[C@@H]4C[C@@H]([C@H]5O[C@@H]45)[C@@H]3[C@@]1(Cl)C2(Cl)Cl: 0.0
- CCC(C)(c1ccc(O)cc1)c1ccc(O)cc1: 0.0
- Cc1cc(O)ccc1Cl: 0.0
- O=S(=O)(O)C(F)(F)C(F)(F)C(F)(F)C(F)(F)F: 0.0
- Oc1ccc(C(c2ccc(O)cc2)(C(F)(F)F)C(F)(F)F)cc1: 0.0
